assay: Pooled analysis of non-compartmental plasma PK of single-dose selumetinib in healthy subjects, by ethnicity; format: in vivo, human; settings: human, plasma, oral, All Asian (N = 72); healthy subjects, single dose; arithmetic mean (SD)
REPORTED_PROPERTY: half-life (h)

Cn1cnc2c(F)c(Nc3ccc(Br)cc3Cl)c(C(=O)NOCCO)cc21 [selumetinib, Selumetinib]	10.4

----------
test: Pooled analysis of non-compartmental plasma PK of single-dose selumetinib in healthy subjects, by ethnicity; format: in vivo, human; conditions: human, plasma, oral, Japanese (N = 27); healthy subjects, single dose; arithmetic mean (SD)
REPORTED_PROPERTY: half-life (h)

Cn1cnc2c(F)c(Nc3ccc(Br)cc3Cl)c(C(=O)NOCCO)cc21 [selumetinib, Selumetinib]	11.5

----------
assay: Pooled analysis of non-compartmental plasma PK of single-dose selumetinib in healthy subjects, by ethnicity; type: in vivo, human; conditions: human, plasma, oral, non-Japanese Asian (N = 36); healthy subjects, single dose; arithmetic mean (SD)
REPORTED_PROPERTY: half-life (h)

Cn1cnc2c(F)c(Nc3ccc(Br)cc3Cl)c(C(=O)NOCCO)cc21	9.8
